Can you tell me TGI for the items I'm about to list?
# System: OVCAR-4 ovarian
# assay comment: NCI tumour cell line growth inhibition, 48 h
Where a SMILES comes first, the peptide text is derived from it. The star is where a group is joined. Boc = CC(C)(C)OC(=O)*

compound	study system	TGI
COC(=O)C1(C)C=CC(=O)C2(C)C1C(O)C1OC3CC(c4ccoc4)C(C)=C3C1(C)C2CC(=O)O (centres undefined)	OVCAR-4 ovarian	> 100 µM
CC(=O)c1cc2ccccc2oc1=O	OVCAR-4 ovarian	> 100 µM
BrC(c1cccc2ccccc12)c1cccc2ccccc12	OVCAR-4 ovarian	36.1 µM
N#CC1CCCCCCCCCCC(=O)N(CCCl)C1=O (centres undefined)	OVCAR-4 ovarian	> 100 µM
C[C@@H]1CC[C@@H]2[C@@H](C1)O[C@@H]([C@H](C)OCc1ccccc1)SC2(C)C	OVCAR-4 ovarian	> 100 µM
C=C(c1ccccc1)[C@@]1(O)CC[C@@H]1N(CC#N)Cc1ccccc1	OVCAR-4 ovarian	29.1 µM

I would be grateful if you could provide TGI for each of the following entries.
1. C=C1C2C[C@@H]3O[C@H]4C[C@H]5O[C@@]6(C[C@@H]7O[C@]8(C[C@H](C)[C@@H]9O[C@@H]%10CC(CO)O[C@@H]%10C[C@@H]9O8)C[C@H](C)[C@@H]7O6)C[C@H]5O[C@H]4[C@H](C)[C@H]3OC(=O)C[C@H]3CC[C@@H]4OC5[C@H]6O[C@]7(CC[C@H]8CC(=C)[C@H](CC[C@@H](C[C@H]1C)O2)O8)CC6O[C@@H]5[C@@H](O7)[C@H]4O3 (some centres undefined)
2. CC(C)OP(=O)(NC(=S)c1ccccc1)OC(C)C
3. O=C1Oc2cc(O)cc(/C=C/c3ccc(O)cc3)c2[C@@]12c1c(O)cc(O)cc1OC2c1cccc(O)c1 (some centres undefined)
4. O=C1C(c2c(O)[nH]c3ccc(Br)cc23)=Nc2ccccc21
5. C=C1C(=O)O[C@H]2[C@H]1CC/C(Cn1cc(-c3ccccc3C(F)(F)F)nn1)=C\CC[C@@]1(C)O[C@@H]21
6. COC(=O)C(Cc1c[nH]c2ccccc12)NC(=O)C(Cc1c[nH]c2ccccc12)NC(=O)C(Cc1c[nH]c2ccccc12)NC(=O)C(Cc1c[nH]c2ccccc12)NC(=O)C(Cc1c[nH]c2ccccc12)NC(=O)C(Cc1c[nH]c2ccccc12)NC(=O)C(Cc1c[nH]c2ccccc12)NC(=O)C(Cc1c[nH]c2ccccc12)NC(=O)OC(C)(C)C (centres undefined) (Boc-WWWWWWWW-OMe; configuration not given here)

[out]
["> 1 µM", "> 100 µM", "> 100 µM", "29.8 µM", "9.4 µM", "> 100 µM"]

I would be grateful if you could provide TGI for each of the following entries.
1. COC(=O)CC[C@H](Cc1ccccc1)NC(=O)c1csc([C@@H](C[C@H](C(C)C)N(C)C(=O)[C@@H](NC(=O)[C@H]2CCCCN2C)C(C)C)OC(C)=O)n1
2. O=Cc1c(O)c(C(=O)Nc2ccc3[nH]c(=O)[nH]c3c2)cc2ccccc12

[out]
> 25 µM
> 100 µM

* * *

# Test system: NCI/ADR-RES ovarian
# assay comment: NCI tumour cell line growth inhibition, 48 h
observation type: TGI (µM)
Answers are plain numbers, in µM.

I would be grateful if you could provide TGI for each of the following entries.
1. C=C1CCC([N+](=O)[O-])[C@](C)(N=O)CC[C@@H]2C1CC2(C)C (some centres not stated)
2. Cc1ccc(O)c(NC(=O)c2ccc(CNc3ccnc(C(F)(F)F)c3)cc2)c1

[out]
82
37.8

I would be grateful if you could provide TGI for each of the following entries.
1. CC12CCC(Br)C(C)(C)C1CC=C1C(=O)OCC1O2 (configuration not stated)
2. O=C(OC[C@H]1O[C@H](OC(=O)c2cc(O)c(O)c(OC(=O)c3cc(O)c(O)c(O)c3)c2)[C@H](OC(=O)c2cc(O)c(O)c(OC(=O)c3cc(O)c(O)c(O)c3)c2)[C@@H](OC(=O)c2cc(O)c(O)c(OC(=O)c3cc(O)c(O)c(O)c3)c2)[C@@H]1OC(=O)c1cc(O)c(O)c(OC(=O)c2cc(O)c(O)c(O)c2)c1)c1cc(O)c(O)c(OC(=O)c2cc(O)c(O)c(O)c2)c1

[out]
56.9
18.9

* * *

# Test system: COLO 205 colon
# assay comment: NCI tumour cell line growth inhibition, 48 h
observation type: TGI

Answered cases to consult:
In [3]: df
Out[3]:
                           smiles_structure    study_system  recorded_value
0  COC(C)(C)C/C=C/C(C)=C/C=C/C(C)=C\C=C\C(C)=C\C=C\C=C(C)\C=C\C=C(C)\C=C\C=C(C)\C=C\CC(C)(C)OC  COLO 205 colon     > 150 µg/mL
1                NC(=S)N/N=C\c1nccc2ccccc12  COLO 205 colon         2.89 µM
2  O=C(NCCCCCCNC(=O)c1cc(-c2ccccc2)nc2ccccc12)c1cc(-c2ccccc2)nc2ccccc12  COLO 205 colon        > 100 µM
3  Cc1cnc(C(=O)Nc2nc3ccc(S(=O)(=O)Nc4ccc(C5(C(F)(F)F)CC5)cc4)cc3[nH]2)cn1  COLO 205 colon         9.35 µM
4  Cc1ccc(NC(=O)c2cc(S(=O)(=O)Nc3nc4ncccc4[nH]3)c(SSc3cc(Cl)c(C(=O)Nc4ccc(C)cc4)cc3S(=O)(=O)Nc3nc4ncccc4[nH]3)cc2Cl)cc1  COLO 205 colon        > 100 µM

I would be grateful if you could provide TGI for each of the following entries.
1. CN(C)c1nc(Cl)c2c(-c3ccccc3)c(-c3ccccc3)oc2n1
2. C/C(=N\NC(=S)NCCCNC(=S)N/N=C(\C)c1ccccn1)c1ccccn1
3. COc1cccc(NC(=O)/C(Cc2nc3ccccc3nc2C)=N/NC(=O)C[n+]2ccccc2)c1

[out]
> 100 µM
> 34.9 µM
44.6 µM

* * *

# Test system: SK-MEL-28 melanoma
# assay comment: NCI tumour cell line growth inhibition, 48 h
Can you tell me GI50 for the items I'm about to list?

compound	study system	GI50
COc1cc(C2CC(c3ccc(Nc4ccnc5cc(Cl)ccc45)cc3)=NN2c2ccc(Cl)cc2)cc(OC)c1OC (centres undefined)	SK-MEL-28 melanoma	2.66 µM
NCCCNCCCCNC(=O)C(O)NC(=O)CCCCCCN=C(N)N (centres undefined)	SK-MEL-28 melanoma	> 3670 µM
CC(C)=CC1=C2C3=C(C(=O)C4(O)Oc5c(C)c6c7c(c5OC24C)[C@@H](C)CC[C@@H]7[C@@H](C)C[C@H]6C=C(C)C)C(C)CCC3C(C)C1 (some centres undefined)	SK-MEL-28 melanoma	8.82 µM

Could you now consider this next compound?
[in] Which GI50 is reported for this compound? CCCCCCCCCCCCC(O)[C@H]1CC[C@H](C(O)CCCCCC(=O)CCCCC2CC(C(C)=O)C(=O)O2)O1 (some centres undefined)
[out] 4.06 µM

* * *

# Tested on: NCI-H460 lung
# assay comment: NCI tumour cell line growth inhibition, 48 h
observation type: TGI

Answered cases to consult:
compound	TGI
CO/N=C(\C)CCC#Cc1ccccc1C(=O)OC	> 10 µM
COc1cc(-c2nc(SCCC(C)C)nc(Nc3ccc(S(N)(=O)=O)cc3)c2C#N)cc(OC)c1OC	8.45 µM
Oc1ccc(-c2nc3ccc(Cl)cc3s2)cc1	36.1 µM
Nn1c(Cc2ccc([N+](=O)[O-])cc2)n[nH]c1=O	> 100 µM

I would be grateful if you could provide TGI for each of the following entries.
1. O=C(/C=C/c1ccc(C(F)(F)F)cc1)c1ccc(Nc2nc(NCCO)nc(Nc3ccc(Cl)cc3)n2)cc1
2. CC(C)=CC1=C2C3=C(C(=O)C4(O)Oc5c(C)c6c7c(c5OC24C)[C@@H](C)CC[C@@H]7[C@@H](C)C[C@H]6C=C(C)C)C(C)CCC3C(C)C1 (stereo partly drawn)
3. Cn1cc(C(=O)C[n+]2ccccc2)c2ccccc21
4. CCCCn1c2c(n(CCCC)c1=S)-c1c(n(CCCC)c(=S)n1CCCC)SSc1c(n(CCCC)c(=S)n1CCCC)-c1c(n(CCCC)c(=S)n1CCCC)SSc1c(n(CCCC)c(=S)n1CCCC)-c1c(n(CCCC)c(=S)n1CCCC)SS2

[out]
1: 13.6 µM; 2: > 100 µM; 3: > 100 µM; 4: > 50 µM

* * *

# System: 786-0 renal
# assay comment: NCI tumour cell line growth inhibition, 48 h
Can you tell me TGI for the items I'm about to list?

compound	TGI
CCN1CCC(O)(c2ccc(Cl)cc2)C(C(=O)c2ccc(Cl)cc2)C1 (configuration not stated)	> 100 µM

I would be grateful if you could provide TGI for each of the following entries.
1. O=C(O)CN1C(=O)C(Cc2ccc(O)cc2)N=C(c2cccc(O)c2)c2ccccc21 (configuration not stated)
2. CN(C)c1ccc(/C=C/c2cc[n+](C)c(/C=C/c3ccc(N(C)C)cc3)c2)cc1
3. NC(N)=NS(=O)(=O)c1ccc(NCCc2c3ccccc3nc3ccccc23)cc1
4. Cc1cnc(C(=O)Nc2nc3ccc(S(=O)(=O)Nc4ccc(C5(C(F)(F)F)CC5)cc4)cc3[nH]2)cn1
5. C=C1C2C[C@@H]3O[C@H]4C[C@H]5O[C@@]6(C[C@@H]7O[C@]8(C[C@H](C)[C@@H]9O[C@@H]%10CC(CO)O[C@@H]%10C[C@@H]9O8)C[C@H](C)[C@@H]7O6)C[C@H]5O[C@H]4[C@H](C)[C@H]3OC(=O)C[C@H]3CC[C@@H]4OC5[C@H]6O[C@]7(CC[C@H]8CC(=C)[C@H](CC[C@@H](C[C@H]1C)O2)O8)CC6O[C@@H]5[C@@H](O7)[C@H]4O3 (some centres not stated)

[out]
1. > 100 µM
2. 1.7 µM
3. > 100 µM
4. 6.65 µM
5. > 0.413 µM

I would be grateful if you could provide TGI for each of the following entries.
1. CN(C)CCNC(=O)c1ccc(NC(=O)c2nc([N+](=O)[O-])cn2C)cc1
2. Cn1c2ccccc2c(=O)c2cccc(C(=O)NC(CCC(N)=O)C(=O)O)c21 (configuration not stated)
3. BrC(c1cccc2ccccc12)c1cccc2ccccc12
4. Nc1nc2c3nc(Nc4ccccc4)sc3nc(=O)n2c2sc(Nc3ccccc3)nc12
5. CC(=O)OCC1OC(n2c(-c3ccc(C)cc3)cc(-c3ccccc3)c(C#N)c2=O)C(OC(C)=O)C(OC(C)=O)C1OC(C)=O (configuration not stated)

[out]
1: > 100 µM; 2: > 100 µM; 3: 28.2 µM; 4: > 100 µM; 5: > 100 µM

I would be grateful if you could provide TGI for each of the following entries.
1. COc1cc(CNNC(N)=S)cc(OC)c1OC
2. O=[N+]([O-])c1ccc(N/N=C/c2ccc(OCCCCCCCCCCCO)cc2)c([N+](=O)[O-])c1
3. CN(C)c1ccc(/C=c2\sc3nc4ccccc4n3c2=O)cc1

[out]
1: > 100 µM; 2: 4 µM; 3: > 100 µM

I would be grateful if you could provide TGI for each of the following entries.
1. CCCCn1c2c(n(CCCC)c1=S)-c1c(n(CCCC)c(=S)n1CCCC)SSc1c(n(CCCC)c(=S)n1CCCC)-c1c(n(CCCC)c(=S)n1CCCC)SSc1c(n(CCCC)c(=S)n1CCCC)-c1c(n(CCCC)c(=S)n1CCCC)SS2
2. O=C1c2ccccc2S(=O)(=O)c2cc(-c3nn[nH]n3)ccc21
3. O=C1CC(c2ccccc2)n2cccc21 (configuration not stated)

[out]
1. > 50 µM
2. > 100 µM
3. > 100 µM
